Target: 5-hydroxytryptamine receptor 2A/Metabotropic glutamate receptor 2 (Homo sapiens, UniProt P28223+Q14416)
Sequence (P28223 whole entry): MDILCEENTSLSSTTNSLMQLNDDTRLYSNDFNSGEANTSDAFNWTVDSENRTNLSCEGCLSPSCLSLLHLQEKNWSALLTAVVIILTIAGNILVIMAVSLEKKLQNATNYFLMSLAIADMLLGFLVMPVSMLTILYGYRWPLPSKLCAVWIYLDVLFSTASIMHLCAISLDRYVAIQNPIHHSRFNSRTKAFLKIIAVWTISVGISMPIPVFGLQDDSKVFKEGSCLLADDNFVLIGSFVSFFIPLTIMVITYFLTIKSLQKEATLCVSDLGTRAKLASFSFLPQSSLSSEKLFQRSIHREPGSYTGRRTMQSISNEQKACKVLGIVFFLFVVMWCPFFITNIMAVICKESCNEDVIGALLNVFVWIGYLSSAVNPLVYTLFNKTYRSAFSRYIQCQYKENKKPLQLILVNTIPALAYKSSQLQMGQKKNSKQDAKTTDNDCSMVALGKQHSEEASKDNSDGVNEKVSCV
Sequence (Q14416 whole entry): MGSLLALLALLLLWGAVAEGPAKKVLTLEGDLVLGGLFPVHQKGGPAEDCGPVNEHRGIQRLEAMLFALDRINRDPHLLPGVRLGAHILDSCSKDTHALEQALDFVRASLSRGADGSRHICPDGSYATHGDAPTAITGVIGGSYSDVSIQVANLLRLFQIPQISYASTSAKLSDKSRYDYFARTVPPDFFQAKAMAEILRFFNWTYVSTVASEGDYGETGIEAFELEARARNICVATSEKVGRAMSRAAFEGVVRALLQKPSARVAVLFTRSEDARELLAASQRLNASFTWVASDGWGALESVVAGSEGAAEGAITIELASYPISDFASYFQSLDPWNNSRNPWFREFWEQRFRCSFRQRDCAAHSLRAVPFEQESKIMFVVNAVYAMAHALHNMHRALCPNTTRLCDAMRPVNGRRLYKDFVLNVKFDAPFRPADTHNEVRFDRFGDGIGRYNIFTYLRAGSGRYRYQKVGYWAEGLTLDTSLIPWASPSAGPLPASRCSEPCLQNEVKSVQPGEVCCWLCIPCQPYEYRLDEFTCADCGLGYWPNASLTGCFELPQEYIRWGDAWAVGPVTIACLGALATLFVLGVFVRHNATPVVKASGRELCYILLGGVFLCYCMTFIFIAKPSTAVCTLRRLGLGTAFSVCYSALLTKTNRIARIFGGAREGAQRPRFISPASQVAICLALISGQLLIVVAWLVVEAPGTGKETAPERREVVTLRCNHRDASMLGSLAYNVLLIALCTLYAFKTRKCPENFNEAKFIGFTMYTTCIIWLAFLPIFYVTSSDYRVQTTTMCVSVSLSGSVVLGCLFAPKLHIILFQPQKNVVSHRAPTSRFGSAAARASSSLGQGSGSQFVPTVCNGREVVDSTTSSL
Assay: Displacement of [3H]-ketanserin from human 5HT2A/mGlu2 receptor expressed in HEK293 cell co-expressing Gqo5 membranes incubated for 2 hrs by scintillation counting method
Assay type: cell-based
Details: read-out: Ki
Exercise: state measured log10(Ki) for each of the compounds provided.
Note: values are log10 of Ki expressed in nM.

I'm hoping you can list log10(Ki) for every compound here, please.
1. COc1c(OCCOCCOCCOc2ccc(C3CCN(c4ccn5c(CC6CC6)nnc5c4Cl)CC3)cc2)cccc1C(=O)C1CCN(CCc2ccc(F)cc2)CC1
2. COc1c(OCCOCCOCCOCCOCCOCCOCCOCCOc2ccc(C3CCN(c4ccn5c(CC6CC6)nnc5c4Cl)CC3)cc2)cccc1C(=O)C1CCN(CCc2ccc(F)cc2)CC1
3. COc1cccc(C(=O)C2CCN(CCc3ccc(F)cc3)CC2)c1OC
4. COc1c(OCCOCCOCCOCCOc2ccc(C3CCN(c4ccn5c(CC6CC6)nnc5c4Cl)CC3)cc2)cccc1C(=O)C1CCN(CCc2ccc(F)cc2)CC1
5. COc1c(OCCOCCOCCOCCOCCOCCOCCOCCOCCOCCOc2ccc(C3CCN(c4ccn5c(CC6CC6)nnc5c4Cl)CC3)cc2)cccc1C(=O)C1CCN(CCc2ccc(F)cc2)CC1
6. COc1c(OCCOCCOCCOCCOCCOCCOCCOCCOCCOCCOCCOCCOc2ccc(C3CCN(c4ccn5c(CC6CC6)nnc5c4Cl)CC3)cc2)cccc1C(=O)C1CCN(CCc2ccc(F)cc2)CC1

**A:**
1: 3.02; 2: 2.20; 3: 0.94; 4: 2.04; 5: 2.08; 6: 2.23

Batch request: log10(Ki) per item, same order as input.
1. COc1c(OCCOCCOCCOCCOCCOCCOc2ccc(C3CCN(c4ccn5c(CC6CC6)nnc5c4Cl)CC3)cc2)cccc1C(=O)C1CCN(CCc2ccc(F)cc2)CC1
2. COCCOc1cccc(C(=O)C2CCN(CCc3ccc(F)cc3)CC2)c1OC
3. COc1c(OCCOCCOCCOCCOCCOc2ccc(C3CCN(c4ccn5c(CC6CC6)nnc5c4Cl)CC3)cc2)cccc1C(=O)C1CCN(CCc2ccc(F)cc2)CC1

**A:**
1. 2.28
2. 1.11
3. 2.51

---

Biological target: 5-hydroxytryptamine receptor 2A/Metabotropic glutamate receptor 2 (Homo sapiens, UniProt P28223+Q14416)
Experiment: Antagonist activity at human 5HT2A/mGlu2 receptor expressed in HEK293 cells co-expressing Gqo5 assessed as inhibition of 5HT-induced intracellular Ca2+ mobilization incubated for 1 hr by Fluo-4 dye based fluorescence assay 5HT2A_HUMAN/GRM2_HUMAN P28223/Q14416
Assay type: functional, cell-based
For each record, write down the corresponding pIC50.
Answers are plain numbers, as −log10 of the molar value.

COc1c(OCCOCCOCCOCCOCCOCCOCCOCCOCCOCCOCCOCCOc2ccc(C3CCN(c4ccn5c(CC6CC6)nnc5c4Cl)CC3)cc2)cccc1C(=O)C1CCN(CCc2ccc(F)cc2)CC1    6.42
COc1c(OCCOCCOCCOCCOCCOCCOc2ccc(C3CCN(c4ccn5c(CC6CC6)nnc5c4Cl)CC3)cc2)cccc1C(=O)C1CCN(CCc2ccc(F)cc2)CC1    6.38
COc1c(OCCOCCOCCOCCOc2ccc(C3CCN(c4ccn5c(CC6CC6)nnc5c4Cl)CC3)cc2)cccc1C(=O)C1CCN(CCc2ccc(F)cc2)CC1    6.10

For every item below, please supply its pIC50.
1. COc1c(OCCOCCOCCOCCOCCOc2ccc(C3CCN(c4ccn5c(CC6CC6)nnc5c4Cl)CC3)cc2)cccc1C(=O)C1CCN(CCc2ccc(F)cc2)CC1
2. COc1c(O)cccc1C(=O)C1CCN(CCc2ccc(F)cc2)CC1
3. COc1c(OCCOCCOCCOCCOCCOCCOCCOCCOCCOCCOc2ccc(C3CCN(c4ccn5c(CC6CC6)nnc5c4Cl)CC3)cc2)cccc1C(=O)C1CCN(CCc2ccc(F)cc2)CC1

**A:**
1: 5.62; 2: 7.66; 3: 6.85
